src = patent US10736829B2

Test: Masking of the bitterness of a mixture of bitter amino acids, panel of experts (n=13), randomized duo-test with nose clip
Type: in vivo
Settings: 100 ppm sample; scale 0 [not bitter] to 10 [extremely bitter]; n=13
Method: The masking effect of hydroxybenzoic acid amides (compounds 1-4) to be preferably used according to the invention as well as a comparative substance (compound 5) on a mixture of bitter amino acids (2 g/l L-Isoleucine; 3.5 g/l L-Leucine; 1 g/l L-Phenylalanine; 0.7 g/l L-Tryptophan in water) was evaluated by an panel of experts (n=13) (Evaluation 0 [not bitter] up to 10 [extremely bitter]). […] The bitterness of the mixture of amino acids was evaluated by the panel by 4.98±0,31 on a scale from 0 to 10.
# Bitter taste amino acid mixture + sample annotations
Give the figure by itself; no unit, no explanation.

COc1cc(CNC(=O)c2ccccc2O)ccc1O	4.74
COc1ccc(C(=O)NCc2ccc(O)c(OC)c2)c(OC)c1 [compound 5, reference compound]	6.86
COc1cc(CNC(=O)c2ccc(O)cc2)ccc1O	4.11
COc1cc(Cn2c(=O)oc3cc(O)cc(O)c3c2=O)ccc1O	3.20

Proceeding to the next compound to report its Bitter taste amino acid mixture + sample.
Indicate the recorded Bitter taste amino acid mixture + sample value for this compound: COc1cc(CNC(=O)c2ccc(O)cc2O)ccc1O
3.90
